Hey, just so you know, these numbers are from patent US11066363B2.

Biological target: SRPK2 (Homo sapiens (Human), UniProt P78362)
Sequence (P78362 whole entry, species assumed): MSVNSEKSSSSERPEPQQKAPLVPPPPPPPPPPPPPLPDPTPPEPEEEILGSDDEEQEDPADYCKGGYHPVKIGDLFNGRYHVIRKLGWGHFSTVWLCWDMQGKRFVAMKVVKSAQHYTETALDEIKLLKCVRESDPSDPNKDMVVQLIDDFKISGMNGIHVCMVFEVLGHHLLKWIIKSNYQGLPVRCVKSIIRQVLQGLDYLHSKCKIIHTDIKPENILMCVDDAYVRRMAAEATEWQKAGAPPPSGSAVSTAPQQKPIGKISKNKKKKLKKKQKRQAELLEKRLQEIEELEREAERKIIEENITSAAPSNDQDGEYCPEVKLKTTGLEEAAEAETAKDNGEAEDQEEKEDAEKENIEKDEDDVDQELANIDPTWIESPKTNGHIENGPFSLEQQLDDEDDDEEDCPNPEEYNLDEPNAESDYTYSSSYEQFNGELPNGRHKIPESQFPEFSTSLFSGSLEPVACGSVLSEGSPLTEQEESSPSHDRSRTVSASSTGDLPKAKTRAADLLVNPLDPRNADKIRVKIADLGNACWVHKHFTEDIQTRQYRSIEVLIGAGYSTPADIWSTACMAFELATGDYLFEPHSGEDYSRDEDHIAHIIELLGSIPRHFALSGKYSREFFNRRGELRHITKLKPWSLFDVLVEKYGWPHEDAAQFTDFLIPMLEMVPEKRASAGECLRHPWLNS
Experiment: SRPK2 inhibitory activity
Type: biochemical
Here, each record is paired with measured IC50 data.
Quantity Measured: IC50 (nM)

CCc1cc2c(cc1N1CCC(N3CCOCC3)CC1)C(C)(C)c1[nH]c3cc(C#N)ccc3c1C2=O [Alectinib] = 28.2
CCc1cc2c(cc1-c1cnn(C(=O)N(C)C)c1)C(C)(C)c1[nH]c3cc(C#N)ccc3c1C2=O [Compound 36] = 23.6
CCc1cc2c(cc1N1CCN(C)CC1)C(C)(C)c1[nH]c3cc(C#N)ccc3c1C2=O [Compound 19] = 8.57
CCc1cc2c(cc1-c1cnn(C)c1)C(C)(C)c1[nH]c3cc(C#N)ccc3c1C2=O [Compound 7] = 12.4
CCc1cc2c(cc1-c1cnn(CCN(C)C)c1)C(C)(C)c1[nH]c3cc(C#N)ccc3c1C2=O [Compound 31] = 6.6
CCc1cc2c(cc1-c1cnoc1)C(C)(C)c1[nH]c3cc(C#N)ccc3c1C2=O [Compound 10] = 14.5
CCc1cc2c(cc1-c1cnn[nH]1)C(C)(C)c1[nH]c3cc(C#N)ccc3c1C2=O [Compound 13] = 7.46
CCc1cc2c(cc1-c1cncnc1)C(C)(C)c1[nH]c3cc(C#N)ccc3c1C2=O [Compound 16] = 12.5

====

Here, each record is paired with measured Percent viability of untreated control, wt data.
System: EML4-ALK wt transformed Ba/F3 cells
Test: Ba/F3 single point inhibition assay (MTS)
Type: cell-based
Settings: single dose 1 μM, 72 hours
Quantity Measured: Percent viability of untreated control, wt (%)

CCc1cc2c(cc1-c1cn[nH]c1)C(C)(C)c1[nH]c3cc(C#N)ccc3c1C2=O = 0
CCc1cc2c(cc1-c1ccncc1)C(C)(C)c1[nH]c3cc(C#N)ccc3c1C2=O = 2
CCc1cc2c(cc1N1CCNCC1)C(C)(C)c1[nH]c3cc(C#N)ccc3c1C2=O = 1
CCc1cc2c(cc1-c1cnn[nH]1)C(C)(C)c1[nH]c3cc(C#N)ccc3c1C2=O = 6
CCc1cc2c(cc1/C=C/CN1CCOCC1)C(C)(C)c1[nH]c3cc(C#N)ccc3c1C2=O = 93
CCc1cc2c(cc1[C@H](O)CO)C(C)(C)c1[nH]c3cc(C#N)ccc3c1C2=O = 4
CCc1cc2c(cc1-c1cnn(CCCN(C)C)c1)C(C)(C)c1[nH]c3cc(C#N)ccc3c1C2=O = 0
CCc1cc2c(cc1-c1cc[nH]n1)C(C)(C)c1[nH]c3cc(C#N)ccc3c1C2=O = 1

====

Tested on: EML4-ALK wt transformed Ba/F3 cells
Experiment: Ba/F3 single point inhibition assay (MTS)
Type: cell-based
Settings: single dose 1 μM, 72 hours
Quantity Measured: Percent viability of untreated control, wt (%)

CCc1cc2c(cc1-c1ccoc1)C(C)(C)c1[nH]c3cc(C#N)ccc3c1C2=O [Compound 11] = 6
CCc1cc2c(cc1-c1cccnc1)C(C)(C)c1[nH]c3cc(C#N)ccc3c1C2=O [Compound 15] = 1
CCc1cc2c(cc1-c1cnoc1)C(C)(C)c1[nH]c3cc(C#N)ccc3c1C2=O [Compound 10] = 2
CCc1cc2c(cc1-c1ccc(O)nc1)C(C)(C)c1[nH]c3cc(C#N)ccc3c1C2=O [Compound 26] = 4
CCc1cc2c(cc1N1CCOCC1)C(C)(C)c1[nH]c3cc(C#N)ccc3c1C2=O [Compound 20] = 2
CCc1cc2c(cc1-c1cnn(CCN(C)C)c1)C(C)(C)c1[nH]c3cc(C#N)ccc3c1C2=O [Compound 31] = 1
CCc1cc2c(cc1[C@@H](O)CO)C(C)(C)c1[nH]c3cc(C#N)ccc3c1C2=O [Compound 22] = 4
CCc1cc2c(cc1-c1cnn(C(=O)N(C)C)c1)C(C)(C)c1[nH]c3cc(C#N)ccc3c1C2=O [Compound 36] = 0
